Sourced from patent US9493464B2

target.or.system: CK1ε (Homo sapiens)
Sequence (P49674 whole entry): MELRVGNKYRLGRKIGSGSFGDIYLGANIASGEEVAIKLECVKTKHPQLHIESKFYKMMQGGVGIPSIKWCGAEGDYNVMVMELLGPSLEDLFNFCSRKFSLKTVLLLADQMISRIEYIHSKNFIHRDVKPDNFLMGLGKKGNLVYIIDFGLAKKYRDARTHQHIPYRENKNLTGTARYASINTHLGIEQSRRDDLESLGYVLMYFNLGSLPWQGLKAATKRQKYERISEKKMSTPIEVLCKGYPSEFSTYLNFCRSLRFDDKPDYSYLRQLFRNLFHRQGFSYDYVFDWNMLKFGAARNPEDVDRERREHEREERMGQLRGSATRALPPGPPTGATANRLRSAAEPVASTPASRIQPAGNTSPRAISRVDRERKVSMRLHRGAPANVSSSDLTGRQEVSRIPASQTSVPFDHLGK
measured.quantity: IC50

item.smiles	assay.value
c1ccc2[nH]c(CNc3nc(N4CCOCC4)nc4c3ncn4-c3ccsc3)nc2c1	100 nM

----------
Reported pIC50 values are given for each entry in this list.
target.or.system: FLT3 (Homo sapiens, UniProt P36888)
Construct: Reaction Biology Corporation (contract assay)
Sequence (P36888 27-993): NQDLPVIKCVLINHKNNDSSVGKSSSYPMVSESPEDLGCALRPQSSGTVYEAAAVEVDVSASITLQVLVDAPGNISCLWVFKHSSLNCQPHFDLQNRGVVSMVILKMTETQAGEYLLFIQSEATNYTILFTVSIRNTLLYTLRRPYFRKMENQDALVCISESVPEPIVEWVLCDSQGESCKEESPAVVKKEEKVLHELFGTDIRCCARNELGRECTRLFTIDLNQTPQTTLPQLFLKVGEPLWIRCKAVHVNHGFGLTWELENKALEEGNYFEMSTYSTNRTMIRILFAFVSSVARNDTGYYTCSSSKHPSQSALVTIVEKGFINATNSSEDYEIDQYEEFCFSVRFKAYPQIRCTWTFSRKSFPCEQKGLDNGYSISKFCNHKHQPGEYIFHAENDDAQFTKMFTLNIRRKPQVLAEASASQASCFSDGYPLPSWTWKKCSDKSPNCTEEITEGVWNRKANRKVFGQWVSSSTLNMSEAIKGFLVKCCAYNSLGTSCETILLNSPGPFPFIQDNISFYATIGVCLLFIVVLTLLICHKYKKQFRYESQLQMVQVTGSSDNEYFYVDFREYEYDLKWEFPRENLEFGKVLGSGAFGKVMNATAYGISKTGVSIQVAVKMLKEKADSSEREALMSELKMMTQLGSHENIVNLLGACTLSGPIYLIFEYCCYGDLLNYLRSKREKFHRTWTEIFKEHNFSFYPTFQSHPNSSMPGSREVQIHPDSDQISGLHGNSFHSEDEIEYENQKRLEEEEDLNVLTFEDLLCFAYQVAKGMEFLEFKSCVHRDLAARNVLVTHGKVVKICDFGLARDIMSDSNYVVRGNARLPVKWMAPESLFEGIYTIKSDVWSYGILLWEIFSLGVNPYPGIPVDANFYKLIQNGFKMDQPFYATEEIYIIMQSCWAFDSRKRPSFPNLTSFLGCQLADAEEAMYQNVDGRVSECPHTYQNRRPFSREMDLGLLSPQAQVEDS
measurement.protocol: In vitro kinase assay, FLT3 (Reaction Biology Corporation)
Type: biochemical
condition.details: determined by Reaction Biology Corporation; read-out: IC50 FLT3
pIC50: −log10 of the molar value.

item.smiles	pIC50
COc1ccc2[nH]c(CNc3nc(N4CCNCC4)nc4c3ncn4-c3ccoc3)nc2c1	6.11
CC(C)n1cnc2c(NCc3nc4c([N+](=O)[O-])cccc4[nH]3)nc(N3CCOCC3)nc21	4.55
Clc1ccc2[nH]c(CNc3nc(N4CCNCC4)nc4c3ncn4-c3ccoc3)nc2c1	7.09
CN1CCN(c2nc(NCc3nc4ccccc4[nH]3)c3ncn(-c4ccsc4)c3n2)CC1	7.17
Fc1ccc2[nH]c(CNc3nc(N4CCOCC4)nc4c3ncn4-c3ccsc3)nc2c1	7.10
FC(F)(F)c1cc(Br)c2nc(CNc3nc(N4CCOCC4)nc4c3ncn4-c3ccsc3)[nH]c2c1	5.32
Cn1c(CNc2nc(N3CCOCC3)nc3c2ncn3-c2ccsc2)nc2ccccc21	6.90
O=[N+]([O-])c1ccc2[nH]c(CNc3nc(N4CCOCC4)nc4c3ncn4-c3ccsc3)nc2c1	6.62

----------
target.or.system: CK1δ (Homo sapiens)
Sequence (P48730 whole entry): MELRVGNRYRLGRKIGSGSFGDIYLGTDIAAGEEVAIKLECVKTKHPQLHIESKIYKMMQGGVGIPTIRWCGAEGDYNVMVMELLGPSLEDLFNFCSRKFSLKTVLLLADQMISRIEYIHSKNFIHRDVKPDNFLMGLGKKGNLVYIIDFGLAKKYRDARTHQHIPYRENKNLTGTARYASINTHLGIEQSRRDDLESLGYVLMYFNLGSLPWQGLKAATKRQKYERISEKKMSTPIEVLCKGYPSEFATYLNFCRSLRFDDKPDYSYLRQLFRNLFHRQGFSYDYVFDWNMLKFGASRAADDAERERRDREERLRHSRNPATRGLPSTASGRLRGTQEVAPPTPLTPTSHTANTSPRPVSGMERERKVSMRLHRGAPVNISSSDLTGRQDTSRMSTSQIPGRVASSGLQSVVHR
measurement.protocol: In-house CK1d inhibition assay (TR-FRET)
Format: biochemical
condition.details: footnote b: in-house CK1d assay
Threshold 200 nM. IC50 below it: Criterion met. IC50 at it or above: Criterion not met.

item.smiles	target.or.system	category.label
Fc1cccc(-n2cnc3c(NCc4nc5cc(F)ccc5[nH]4)nc(N4CCNCC4)nc32)c1	CK1δ (Homo sapiens)	Criterion met
NC1CN(c2nc(NCc3nc4ccccc4[nH]3)c3ncn(-c4cccc(F)c4)c3n2)C1	CK1δ (Homo sapiens)	Criterion not met
c1ccc2[nH]c(CNc3nc(N4CCNCC4)nc4c3ncn4-c3ccoc3)nc2c1	CK1δ (Homo sapiens)	Criterion met
CC(C)N1CCN(c2nc(NCc3nc4ccccc4[nH]3)c3ncn(-c4cccc(F)c4)c3n2)CC1	CK1δ (Homo sapiens)	Criterion not met
Fc1cccc(-n2cnc3c(NCc4nc5c(Cl)cccc5[nH]4)nc(N4CCOCC4)nc32)c1	CK1δ (Homo sapiens)	Criterion met
CN1CCN(c2nc(NCc3nc4cc(F)ccc4[nH]3)c3ncn(-c4cccc(F)c4)c3n2)CC1	CK1δ (Homo sapiens)	Criterion met
O=[N+]([O-])c1cccc2[nH]c(CNc3nc(N4CCOCC4)nc4c3ncn4-c3ccccc3F)nc12	CK1δ (Homo sapiens)	Criterion met

----------
target.or.system: CK1δ (Homo sapiens)
measurement.protocol: In-house CK1d inhibition assay (TR-FRET)
Assay type: biochemical
condition.details: footnote b: in-house CK1d assay
pIC50: −log10 of the molar value.

item.smiles	target.or.system	result.operator	pIC50
COC(=O)c1cccc2[nH]c(CNc3nc(N4CCNCC4)nc4c3ncn4-c3ccoc3)nc12	CK1δ (Homo sapiens)	=	7.48
NC1CN(c2nc(NCc3nc4cc(Cl)ccc4[nH]3)c3ncn(-c4cccc(F)c4)c3n2)C1	CK1δ (Homo sapiens)	=	6.44
O=[N+]([O-])c1cccc2[nH]c(CNc3nc(N4CCOCC4)nc4c3ncn4-c3cccc(F)c3)nc12	CK1δ (Homo sapiens)	=	7.34
CN1CCN(c2nc(NCc3nc4cc(C(F)(F)F)ccc4[nH]3)c3ncn(-c4ccoc4)c3n2)CC1	CK1δ (Homo sapiens)	=	6.70
Fc1cccc(-n2cnc3c(NCc4nc5ccccc5[nH]4)nc(N4CCC(F)(F)CC4)nc32)c1	CK1δ (Homo sapiens)	<	5.00
Fc1cccc(-n2cnc3c(NCc4nc5cc(F)ccc5[nH]4)nc(N4CCOCC4)nc32)c1	CK1δ (Homo sapiens)	=	7.06
CN(C)C(=O)c1cccc2[nH]c(CNc3nc(N4CCNCC4)nc4c3ncn4-c3ccoc3)nc12	CK1δ (Homo sapiens)	=	6.97
Fc1cccc(-n2cnc3c(NCc4nc5c(F)cccc5[nH]4)nc(N4CCOCC4)nc32)c1	CK1δ (Homo sapiens)	=	7.43

----------
Test system: MDA-MB-468 (breast)
measurement.protocol: NCI Dose Growth Inhibition assay (NCI-60)
Assay type: cell-based
condition.details: Homo sapiens; MDA-MB-468 (breast); read-out: GI50

item.smiles	reading.unit	result.operator	GI50
Clc1ccc2[nH]c(CNc3nc(N4CCNCC4)nc4c3ncn4-c3ccoc3)nc2c1	nM	<	10
c1ccc2[nH]c(CNc3nc(N4CCOCC4)nc4c3ncn4-c3ccsc3)nc2c1	nM	=	16
Fc1cccc(-n2cnc3c(NCc4nc5cc(Cl)ccc5[nH]4)nc(N4CCNCC4)nc32)c1	nM	=	12
CN1CCN(c2nc(NCc3nc4cc(Cl)ccc4[nH]3)c3ncn(-c4ccoc4)c3n2)CC1	nM	<	10
COc1ccc2[nH]c(CNc3nc(N4CCNCC4)nc4c3ncn4-c3ccoc3)nc2c1	nM	<	10

----------
target.or.system: CK1δ (Homo sapiens)
measurement.protocol: In vitro kinase assay, CK1d, 32P-ATP filter binding (Reaction Biology Corporation)
Assay type: biochemical
condition.details: footnote a: determined by Reaction Biology Corporation; read-out: IC50 CK1d
Class membership depends on IC50 alone; the intervals are low range: < 10 nM; mid range: ≥ 10 nM and < 100 nM; high range: ≥ 100 nM

molecule	category.label
CCOC(=O)c1cccc2[nH]c(CNc3nc(N4CCOCC4)nc4c3ncn4-c3ccsc3)nc12 [SR-1282]	high range
Clc1ccc2[nH]c(CNc3nc(N4CCNCC4)nc4c3ncn4-c3ccoc3)nc2c1 [SR-2889]	low range
CN1CCN(c2nc(NCc3nc4cc(F)ccc4[nH]3)c3ncn(-c4ccoc4)c3n2)CC1 [SR-2866]	mid range
FC(F)(F)c1cc(Br)c2nc(CNc3nc(N4CCOCC4)nc4c3ncn4-c3ccsc3)[nH]c2c1 [SR-1285]	high range
Cn1c(CNc2nc(N3CCOCC3)nc3c2ncn3-c2ccsc2)nc2ccccc21 [SR-2001]	mid range
CC(C)n1cnc2c(NCc3nc4c([N+](=O)[O-])cccc4[nH]3)nc(N3CCOCC3)nc21 [SR-1284]	high range
O=[N+]([O-])c1cccc2[nH]c(CNc3nc(N4CCOCC4)nc4c3ncn4-c3ccc(F)cc3)nc12 [SR-2362]	high range
CS(=O)(=O)c1cccc2[nH]c(CNc3nc(N4CCOCC4)nc4c3ncn4-c3ccsc3)nc12 [SR-2805]	mid range
COc1ccc2[nH]c(CNc3nc(N4CCNCC4)nc4c3ncn4-c3ccoc3)nc2c1 [SR-2891]	mid range
FC(F)(F)c1ccc2[nH]c(CNc3nc(N4CCOCC4)nc4c3ncn4-c3ccsc3)nc2c1 [SR-1273]	mid range
Clc1ccc2[nH]c(CNc3nc(N4CCOCC4)nc4c3ncn4-c3ccoc3)nc2c1 [SR-2850]	mid range
c1ccc2[nH]c(CNc3nc(N4CCNCC4)nc4c3ncn4-c3ccsc3)nc2c1 [SR-1292]	low range
Fc1cccc(-n2cnc3c(NCc4nc5cc(Cl)ccc5[nH]4)nc(N4CCNCC4)nc32)c1 [SR-2890]	low range
Clc1ccc2[nH]c(CNc3nc(N4CCOCC4)nc4c3ncn4-c3ccsc3)nc2c1 [SR-1274]	high range
FC(F)(F)c1cccc2[nH]c(CNc3nc(N4CCOCC4)nc4c3ncn4-c3ccsc3)nc12 [SR-1272]	high range
COc1ccc2[nH]c(CNc3nc(N4CCOCC4)nc4c3ncn4-c3ccsc3)nc2c1 [SR-1279]	mid range
